The measurements presented in this section are drawn from paper PMC4466525.

- Tested on: PC-3
- Assay Notes: Cell viability (MTS) anti-proliferative assay, PC-3
- Format: cell-based
- Stated Conditions: PC-3 human prostate cancer, 48 h treatment, n = 4, read-out: IC50 values ± SEM, PC-3
pIC50: −log10 of the molar value.
Observed Property: pIC50

1 = Oc1c(CN2CCCC2)cc(CSCc2ccccc2)c2cccnc12 [12a]
2 = CN(Cc1ccccc1)Cc1cc(CN2CCCC2)c(O)c2ncccc12 [12b]
3 = Oc1c(CN2CCCC2)cc(COCc2ccco2)c2cccnc12 [6a]
Ask | Using the list above, order everything by rising pIC50. Record the ranking as a list of labels in the requested order.
Reply | 3, 2, 1

1 = Oc1c(CN2CCCC2)cc(COCc2ccc(C(F)(F)F)cc2)c2cccnc12 [4d]
2 = Oc1c(CN2CCCC2)cc(COCc2ccccc2)c2cccnc12 [UC-112, reference compound]
Ask | Lab note: record which item had the higher pIC50, 1 or 2 . Your answer should be the label of the entry you select.
Reply | 1
(1: 6.00, 2: 5.80)

---

- Assay Notes: Metabolic stability in human liver microsomes
- Assay type: in vitro ADME
- Stated Conditions: test concentration 100 nM
Observed Property: half-life at 100 nM (min)
Provide only the numeric value, understood in min.

Ask | Identify measured half-life at 100 nM associated with CC(C)c1ccc(COCc2cc(CN3CCCC3)c(O)c3ncccc23)cc1
Reply | 51

---

- Test System: CYP2C9 (Homo sapiens)
- Construct: tissue Eurofins Panlabs Inc. (contract research service) Study Number 100017964; host or cells: human liver microsomes
- Sequence (P11712 whole entry): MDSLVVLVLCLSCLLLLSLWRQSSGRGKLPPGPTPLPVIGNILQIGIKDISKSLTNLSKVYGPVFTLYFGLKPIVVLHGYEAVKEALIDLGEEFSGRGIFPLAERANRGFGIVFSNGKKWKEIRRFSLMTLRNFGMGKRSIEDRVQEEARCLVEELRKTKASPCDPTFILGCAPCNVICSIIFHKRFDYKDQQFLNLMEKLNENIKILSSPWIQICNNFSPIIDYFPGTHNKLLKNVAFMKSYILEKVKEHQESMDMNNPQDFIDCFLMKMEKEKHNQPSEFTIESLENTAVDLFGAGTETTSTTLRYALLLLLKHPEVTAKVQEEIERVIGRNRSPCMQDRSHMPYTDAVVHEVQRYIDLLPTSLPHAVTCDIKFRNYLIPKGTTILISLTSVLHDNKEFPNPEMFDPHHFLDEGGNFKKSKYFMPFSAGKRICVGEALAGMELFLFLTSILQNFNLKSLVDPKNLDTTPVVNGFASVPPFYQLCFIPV
- Assay Notes: Cytochrome P450 inhibition, CYP2C9
- Format: in vitro ADME
- Stated Conditions: probe diclofenac, substrate diclofenac, human liver microsomes 0.1 mg/mL, read-out: % inhibition of control values, CYP2C9
Observed Property: inhibition at 10 min (%)
Provide only the numeric value, understood in %.

Ask | Identify measured inhibition at 10 min associated with CC(C)c1ccc(COCc2cc(CN3CCCC3)c(O)c3ncccc23)cc1
Reply | 17

---

- Test System: CYP2C8 (Homo sapiens)
- Construct: tissue Eurofins Panlabs Inc. (contract research service) Study Number 100017964; host or cells: human liver microsomes
- Sequence (P10632 whole entry): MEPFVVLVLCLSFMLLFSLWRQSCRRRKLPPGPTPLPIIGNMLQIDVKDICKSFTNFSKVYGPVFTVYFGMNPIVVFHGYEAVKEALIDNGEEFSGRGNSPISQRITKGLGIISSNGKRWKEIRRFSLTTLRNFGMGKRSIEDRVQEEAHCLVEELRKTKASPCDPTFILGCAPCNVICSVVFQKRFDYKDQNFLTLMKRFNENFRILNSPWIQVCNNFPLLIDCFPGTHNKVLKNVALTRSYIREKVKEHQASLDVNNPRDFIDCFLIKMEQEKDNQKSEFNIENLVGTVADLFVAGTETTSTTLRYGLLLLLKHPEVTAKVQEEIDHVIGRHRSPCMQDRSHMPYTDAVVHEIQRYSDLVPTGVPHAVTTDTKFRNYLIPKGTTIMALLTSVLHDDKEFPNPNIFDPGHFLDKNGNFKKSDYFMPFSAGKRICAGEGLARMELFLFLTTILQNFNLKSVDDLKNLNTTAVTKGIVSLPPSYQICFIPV
- Assay Notes: Cytochrome P450 inhibition, CYP2C8
- Type: in vitro ADME
- Stated Conditions: probe paclitaxel, substrate paclitaxel, human liver microsomes 0.1 mg/mL, read-out: % inhibition of control values, CYP2C8
Observed Property: inhibition at 10 min (%)
Provide only the numeric value, understood in %.

Ask | Identify measured inhibition at 10 min associated with CC(C)c1ccc(COCc2cc(CN3CCCC3)c(O)c3ncccc23)cc1
Reply | 21

---

- Test System: CYP2B6 (Homo sapiens)
- Construct: tissue Eurofins Panlabs Inc. (contract research service) Study Number 100017964; host or cells: human liver microsomes
- Sequence (P20813 whole entry): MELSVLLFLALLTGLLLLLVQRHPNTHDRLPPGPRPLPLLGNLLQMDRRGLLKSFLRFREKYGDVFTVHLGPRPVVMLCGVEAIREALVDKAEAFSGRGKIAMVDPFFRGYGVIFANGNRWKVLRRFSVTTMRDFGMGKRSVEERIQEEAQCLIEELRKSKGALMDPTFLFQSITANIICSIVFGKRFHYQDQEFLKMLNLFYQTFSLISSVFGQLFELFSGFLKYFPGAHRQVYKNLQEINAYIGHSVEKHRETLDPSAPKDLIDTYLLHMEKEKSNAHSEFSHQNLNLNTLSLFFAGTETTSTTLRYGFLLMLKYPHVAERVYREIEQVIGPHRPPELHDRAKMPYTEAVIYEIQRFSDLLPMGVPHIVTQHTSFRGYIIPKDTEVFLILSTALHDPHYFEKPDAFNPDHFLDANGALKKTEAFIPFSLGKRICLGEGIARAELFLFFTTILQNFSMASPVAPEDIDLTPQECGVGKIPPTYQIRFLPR
- Assay Notes: Cytochrome P450 inhibition, CYP2B6
- Type: in vitro ADME
- Stated Conditions: probe bupropion, substrate bupropion, human liver microsomes 0.1 mg/mL, read-out: % inhibition of control values, CYP2B6
Observed Property: inhibition at 10 min (%)
Provide only the numeric value, understood in %.

Ask | Identify measured inhibition at 10 min associated with CC(C)c1ccc(COCc2cc(CN3CCCC3)c(O)c3ncccc23)cc1 [4g]
Reply | 21

---

- Test system: M14
- Assay Notes: Cell viability (MTS) anti-proliferative assay, M14
- Format: cell-based
- Stated Conditions: M14 human melanoma, 48 h treatment, n = 4, read-out: IC50 values ± SEM, M14
Reported pIC50 is given for each of the following compounds.
Scale note: pIC50 = -log10(concentration in M).

Sample records with pIC50:
# Compound, pIC50
rows = [
    ("COc1cc(COCc2cc(CN3CCCC3)c(O)c3ncccc23)cc(OC)c1OC", 5.44),
    ("Oc1c(CN2CCCC2)cc(COCc2ccc(F)cc2)c2cccnc12", 5.74),
    ("CCCCOCc1cc(CN2CCCC2)c(O)c2ncccc12", 5.31),
]

Ask | Identify measured pIC50 associated with Cc1ccc(COCc2cc(CN3CCCC3)c(O)c3ncccc23)cc1
Reply | 5.64

Ask | Identify measured pIC50 associated with Oc1c(CN2CCCC2)cc(COCC2CCCCC2)c2cccnc12
Reply | 5.89

Ask | Identify measured pIC50 associated with Oc1c(CN2CCOCC2)cc(COCc2ccccc2)c2cccnc12
Reply | 5.32

Ask | Identify measured pIC50 associated with Oc1c(CN2CCCC2)cc(CSCc2ccccc2)c2cccnc12 [12a]
Reply | 5.85

---

- Test System: CYP2D6 (Homo sapiens, UniProt P10635)
- Construct: tissue Eurofins Panlabs Inc. (contract research service) Study Number 100017964; host or cells: human liver microsomes
- Sequence (P10635 whole entry): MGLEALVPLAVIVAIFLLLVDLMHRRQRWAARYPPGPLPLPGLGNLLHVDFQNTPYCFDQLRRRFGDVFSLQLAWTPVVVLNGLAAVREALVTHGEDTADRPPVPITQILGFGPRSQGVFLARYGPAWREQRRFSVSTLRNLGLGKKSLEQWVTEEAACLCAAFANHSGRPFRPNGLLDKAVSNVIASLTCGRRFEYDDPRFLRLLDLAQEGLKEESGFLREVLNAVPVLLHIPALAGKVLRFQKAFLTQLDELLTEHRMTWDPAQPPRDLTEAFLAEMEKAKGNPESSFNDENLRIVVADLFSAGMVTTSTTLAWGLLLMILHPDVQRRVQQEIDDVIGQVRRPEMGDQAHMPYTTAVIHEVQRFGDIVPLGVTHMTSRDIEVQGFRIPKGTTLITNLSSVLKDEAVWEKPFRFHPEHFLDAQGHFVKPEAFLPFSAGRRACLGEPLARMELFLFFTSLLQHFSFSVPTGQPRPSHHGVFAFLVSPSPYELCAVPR
- Assay Notes: Cytochrome P450 inhibition, CYP2D6
- Format: in vitro ADME
- Stated Conditions: probe dextromethorphan, substrate dextromethorphan, human liver microsomes 0.1 mg/mL, read-out: % inhibition of control values, CYP2D6
Observed Property: inhibition at 10 min (%)
Provide only the numeric value, understood in %.

Ask | Identify measured inhibition at 10 min associated with CC(C)c1ccc(COCc2cc(CN3CCCC3)c(O)c3ncccc23)cc1
Reply | 87

---

- Test System: CYP1A (Homo sapiens, UniProt P05177)
- Construct: tissue Eurofins Panlabs Inc. (contract research service) Study Number 100017964; host or cells: human liver microsomes
- Sequence (P05177 2-516 limits assumed): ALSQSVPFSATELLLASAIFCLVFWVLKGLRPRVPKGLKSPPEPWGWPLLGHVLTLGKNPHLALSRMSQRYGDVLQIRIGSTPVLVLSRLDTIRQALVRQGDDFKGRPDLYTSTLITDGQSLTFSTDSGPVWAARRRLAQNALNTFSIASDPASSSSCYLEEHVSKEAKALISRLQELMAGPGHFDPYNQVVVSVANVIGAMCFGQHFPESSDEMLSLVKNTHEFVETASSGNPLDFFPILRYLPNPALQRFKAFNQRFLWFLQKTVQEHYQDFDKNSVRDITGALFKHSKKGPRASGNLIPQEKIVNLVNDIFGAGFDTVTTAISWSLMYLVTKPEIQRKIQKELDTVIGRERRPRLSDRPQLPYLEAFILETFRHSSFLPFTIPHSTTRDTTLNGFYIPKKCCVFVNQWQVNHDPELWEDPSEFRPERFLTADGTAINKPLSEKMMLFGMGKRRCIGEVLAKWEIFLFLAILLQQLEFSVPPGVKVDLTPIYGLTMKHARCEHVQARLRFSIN
- Assay Notes: Cytochrome P450 inhibition, CYP1A
- Format: in vitro ADME
- Stated Conditions: probe phenacetin, substrate phenacetin, human liver microsomes 0.1 mg/mL, read-out: % inhibition of control values, CYP1A
Observed Property: inhibition at 10 min (%)
Provide only the numeric value, understood in %.

Ask | Identify measured inhibition at 10 min associated with CC(C)c1ccc(COCc2cc(CN3CCCC3)c(O)c3ncccc23)cc1
Reply | 18

---

- Assay Notes: Metabolic stability in human liver microsomes
- Type: in vitro ADME
- Stated Conditions: human
Observed Property: microsomal CLint at 100 nM (µL/min/mg)
Provide only the numeric value, understood in µL/min/mg.

Ask | Identify measured microsomal CLint at 100 nM associated with CC(C)c1ccc(COCc2cc(CN3CCCC3)c(O)c3ncccc23)cc1
Reply | 137

---

- Tested on: CYP3A
- Assay Notes: Cytochrome P450 inhibition, CYP3A
- Format: in vitro ADME
- Stated Conditions: probe midazolam, substrate midazolam, human liver microsomes 0.1 mg/mL, read-out: % inhibition of control values, CYP3A (midazolam)
Observed Property: inhibition at 10 min (%)
Provide only the numeric value, understood in %.

Ask | Identify measured inhibition at 10 min associated with CC(C)c1ccc(COCc2cc(CN3CCCC3)c(O)c3ncccc23)cc1
Reply | 3

---

- Assay Notes: Aqueous solubility, shake-flask method
- Assay type: physicochemical
- Stated Conditions: PBS buffer, thermodynamic from solid, PBS pH 7.4, test concentration 200 μM
Observed Property: solubility (µM)
Provide only the numeric value, understood in µM.

Ask | Identify measured solubility associated with CC(C)c1ccc(COCc2cc(CN3CCCC3)c(O)c3ncccc23)cc1 [4g]
Reply | 149

---

- System: CYP3A
- Assay Notes: Cytochrome P450 inhibition, CYP3A
- Assay type: in vitro ADME
- Stated Conditions: probe testosterone, substrate testosterone, human liver microsomes 0.1 mg/mL, read-out: % inhibition of control values, CYP3A (testosterone)
Observed Property: inhibition at 10 min (%)
Provide only the numeric value, understood in %.

Ask | Output reported inhibition at 10 min of the compound CC(C)c1ccc(COCc2cc(CN3CCCC3)c(O)c3ncccc23)cc1 on CYP3A.
Reply | 29

---

Reported pIC50 is given for each of the following molecules.
- Tested on: M14
- Assay Notes: Cell viability (MTS) anti-proliferative assay, M14
- Type: cell-based
- Stated Conditions: M14 human melanoma, 48 h treatment, n = 4, read-out: IC50 values ± SEM, M14
Scale note: pIC50 = -log10(concentration in M).

Ask | Identify measured pIC50 associated with COc1ccc(COCc2cc(CN3CCCC3)c(O)c3ncccc23)cc1
Reply | 5.82

Ask | Identify measured pIC50 associated with CN(Cc1ccccc1)Cc1cc(CN2CCCC2)c(O)c2ncccc12 [12b]
Reply | 5.21

Ask | Identify measured pIC50 associated with CCCOCc1cc(CN2CCCC2)c(O)c2ncccc12
Reply | 5.23

Ask | Identify measured pIC50 associated with CC(C)c1ccc(COCc2cc(CN3CCCC3)c(O)c3ncccc23)cc1
Reply | 6.10

Ask | Identify measured pIC50 associated with Oc1c(CN2CCCC2)cc(COCc2ccc(Br)cc2)c2cccnc12
Reply | 6.00

Ask | Identify measured pIC50 associated with Oc1c(CN2CCCC2)cc(COCc2ccc(C(F)(F)F)cc2)c2cccnc12
Reply | 6.00

Ask | Identify measured pIC50 associated with Oc1c(CN2CCCC2)cc(COCCCc2ccccc2)c2cccnc12 [10b]
Reply | 5.64

Ask | Identify measured pIC50 associated with Oc1c(CN2CCCC2)cc(COCc2cccs2)c2cccnc12
Reply | 5.72

Ask | Identify measured pIC50 associated with Oc1c(CN2CCCC2)cc(COCc2ccccc2)c2cccnc12 [UC-112, reference compound]
Reply | 5.68

Ask | Identify measured pIC50 associated with Oc1c(CN2CCCC2)cc(COCc2ccccn2)c2cccnc12
Reply | 5.10

Ask | Identify measured pIC50 associated with COCCn1c2c([n+](Cc3cnccn3)c1C)C(=O)c1ccccc1C2=O [YM-155, reference compound]
Reply | 8.52

Ask | Identify measured pIC50 associated with Oc1c(CN2CCCC2)cc(COCCc2ccccc2)c2cccnc12 [10a]
Reply | 5.54

Ask | Identify measured pIC50 associated with Oc1c(CN2CCCC2)cc(COCc2ccco2)c2cccnc12
Reply | 5.51

Ask | Identify measured pIC50 associated with CCOCc1cc(CN2CCCC2)c(O)c2ncccc12
Reply | 5.29
